Each recorded value in this set is attributed to PubChem BioAssay (NCATS).

Assay: Primary redox qHTS assay for identification of artifact compounds. (AID 1845223);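 also: 0% = DMSO and 100% = reference compound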
Settings: Amplex Red/HRP redox cycling with DTT, fluorescence; series mostly up to 53.8 µM
Inconclusive results are not listed. Calls of active or inactive are those of the source. Calls follow the shape of the dose curve; as a rule, active = well fitted activation curve with a large enough effect; inconclusive = small, poorly fitted or top-dose-only effect; inactive = flat fitted curve, though single readings scatter.
PARAMETER: redox activity (% of DA3003)

Reference set, count: 5
molecule="O=C1NCc2nc3ccccc3c(=O)n2C1Cc1c[nH]c2ccccc12 (stereo unspecified)" recorded_value=inactive
molecule="CC(C)CC1(C(=O)OCc2ccc(O[C@@H]3O[C@H](CO)[C@@H](O)[C@H](O)[C@H]3O)cc2)CC(=O)OC(C(=O)O)CC(=O)OCC2OC(O1)C(OC(=O)/C=C/c1ccc(O)cc1)C(O)C2O (stereo partly specified)" recorded_value="23.6% [at 11.5 µM] (inactive)"
molecule="C/C=C(\\C)C(=O)O[C@H]1[C@H](O)[C@]2(COC(C)=O)[C@H](O)C[C@]3(C)C(=CCC4[C@@]5(C)CC[C@H](O[C@@H]6O[C@H](C(=O)O)[C@@H](O[C@@H]7O[C@H](CO)[C@@H](O)[C@H](O)[C@H]7O)[C@H](O)[C@H]6O[C@@H]6O[C@H](CO)[C@@H](O)[C@H](O)[C@H]6O)[C@](C)(CO)C5CC[C@]43C)[C@@H]2CC1(C)C (stereo partly specified)" recorded_value="2.47% [at 11.5 µM] (inactive)"
molecule=N#Cc1ccnc(N2C(=O)CC[C@H]2C(=O)N(c2cncc(F)c2)[C@H](C(=O)NC2CC(F)(F)C2)c2ccccc2Cl)c1 recorded_value=inactive
molecule=C[C@H]1[C@H](C)CC[C@]2(C(=O)O)CC[C@]3(C)C(=CC[C@@H]4[C@@]5(C)C[C@@H](O)[C@H](O)[C@@](C)(CO)[C@@H]5CC[C@]43C)[C@H]12 recorded_value=inactive

[in] Data request, read-out redox activity (% of DA3003), for N[C@H]1C[C@H]1c1ccc(-c2cccc(O)c2)cc1
[out] inactive

* * *

Test system: NIH3T3
Assay: qHTS assay to identify novel small-molecules to repurpose for Merkel cell carcinoma treatment (AID 1296009); also: nearly all actives have a fitted effect of over 60% in size
Conditions: MCC and control cell lines, CellTiter-Glo viability, 72 h; at 44.8 µM (top of the series) unless noted
Excerpt: MCC is a rare and aggressive neuroendocrine skin cancer with limited treatment options. Approximately 80% of MCCs have the Merkel cell polyomavirus (MCPyV) DNA integrated into the host genome (virus-positive: VP-MCC) and viral oncogenes drive oncogenesis. The remaining MCCs are virus-negative (VN-MCC) and are caused by UV mutagenesis. […] Using cell viability as a readout (CellTiter-Glo assay) we found both overlapping and distinct drugs that can be repurposed for the treatment of VP-MCC and VN-MCC. […]
Records with an inconclusive call do not appear. The source made the active and inactive calls. Calls follow the shape of the dose curve; as a rule, active = well fitted inhibition curve with a large enough effect; inconclusive = small, poorly fitted or top-dose-only effect; inactive = flat fitted curve, though single readings scatter.
PARAMETER: outcome

Reference set, count: 5
compound="COc1cc(/C=C/C(=O)OC2CC(C)=C(C(=O)O)/C2=C/CO[C@@H]2O[C@H](CO)[C@@H](O)[C@H](O)[C@H]2O)ccc1O (stereo partly drawn)" recorded_value="inactive [at 17.4 µM]"
compound="CC1(CO)CC2C(O)C(=O)C3(CO)CC3(C)C2C1 (stereo not drawn)" recorded_value=inactive
compound="CC1CCC23COC(=O)C2=CC(O)CC3C1(C)CCC1=CC(=O)OC1O (stereo not drawn)" recorded_value=inactive
compound="CC(=O)[C@@H]1CC[C@]2(C(=O)O)CC[C@]3(C)C(CCC4[C@@]5(C)CC[C@H](O)C(C)(C)C5CC[C@]43C)C12 (stereo partly drawn)" recorded_value="inactive [at 17.4 µM]"
compound=N#CCc1ccc(O)cc1O[C@@H]1O[C@H](CO)[C@@H](O)[C@H](O)[C@H]1O recorded_value=inactive

[in] # value lookup — system NIH3T3, readout outcome, item CC1(C)CC(=O)N(CCCCN2CCN(c3ncccn3)CC2)C(=O)C1
[out] inactive

[in] # value lookup — system NIH3T3, readout outcome, item O=C(/C=C/c1ccc(O)cc1)OC[C@]12O[C@H]1[C@@H](O)[C@@H]1C=CO[C@@H](O[C@@H]3O[C@H](CO)[C@@H](O)[C@H](O)[C@H]3O)[C@@H]12
[out] inactive [at 17.4 µM]

[in] # value lookup — system NIH3T3, readout outcome, item C=C1CC[C@H]2[C@@H](/C=C(\C)C(=O)[C@@]3(OC(C)=O)C[C@H](C)[C@H](OC(C)=O)[C@@H]3[C@H]1OC(C)=O)C2(C)C
[out] inactive [at 17.4 µM]

[in] # value lookup — system NIH3T3, readout outcome, item C=CC(C)(C)O[C@@H]1O[C@H](CO[C@@H]2OC[C@](O)(CO)[C@H]2O)[C@@H](O)[C@H](O)[C@H]1O
[out] inactive

[in] # value lookup — system NIH3T3, readout outcome, item O=C(O[C@H]1[C@@H]2C=CO[C@@H](O[C@@H]3O[C@H](CO)[C@@H](O)[C@H](O)[C@H]3O)[C@@H]2[C@@]2(CO)O[C@@H]12)c1ccc(O)c(O)c1
[out] inactive [at 17.4 µM]

[in] # value lookup — system NIH3T3, readout outcome, item C=CC(C)(O)CC/C=C(\C)C(=O)OCC1OC(OC2CCC3(C)C(CCC4(C)C3CC=C3C5CC(C)(C)C(O)CC5(C(=O)O)CCC34C)C2(C)C)C(O)C(OC2OC(CO)C(O)C(OC3OC(CO)C(O)C(OC4OC(COC5OC(CO)C(O)C(O)C5O)C(O)C(O)C4O)C3O)C2O)C1O (stereo not drawn)
[out] inactive [at 9.27 µM]

[in] # value lookup — system NIH3T3, readout outcome, item C=CC1(C)CC2=CCC3C(C)(C(=O)O)CCCC3(C)C2CC1OC(C)=O (stereo not drawn)
[out] inactive

[in] # value lookup — system NIH3T3, readout outcome, item CC1CCC2(O1)C(C)(C)CC(O[C@@H]1O[C@H](CO[C@@H]3OC[C@](O)(CO)[C@H]3O)[C@@H](O)[C@H](O)[C@H]1O)CC2(C)O (stereo partly drawn)
[out] inactive [at 17.4 µM]

[in] # value lookup — system NIH3T3, readout outcome, item CCOc1nc2cccc(C(=O)OCc3oc(=O)oc3C)c2n1Cc1ccc(-c2ccccc2-c2noc(O)n2)cc1
[out] inactive

[in] # value lookup — system NIH3T3, readout outcome, item CN1C(=O)N[C@@H](Cc2c[nH]c3c(Cl)cccc23)C1=O
[out] inactive

[in] # value lookup — system NIH3T3, readout outcome, item O=C(O)CCc1cccc(O[C@@H]2O[C@H](CO)[C@@H](O)[C@H](O)[C@H]2O)c1O
[out] inactive
